target: TRPA1 receptor (Homo sapiens, UniProt O75762); construct: expressed in transfected cells; host or cells: HEK cell line; test: cell-based; conditions: HEK293; percentage of the control (allyl isothiocyanate) calcium count; material dissolved in DMSO at 100 micromolar; HEK cells with TRPA1; direct addition; read-out: TRPA1 Direct addition
Sequence (O75762 whole entry): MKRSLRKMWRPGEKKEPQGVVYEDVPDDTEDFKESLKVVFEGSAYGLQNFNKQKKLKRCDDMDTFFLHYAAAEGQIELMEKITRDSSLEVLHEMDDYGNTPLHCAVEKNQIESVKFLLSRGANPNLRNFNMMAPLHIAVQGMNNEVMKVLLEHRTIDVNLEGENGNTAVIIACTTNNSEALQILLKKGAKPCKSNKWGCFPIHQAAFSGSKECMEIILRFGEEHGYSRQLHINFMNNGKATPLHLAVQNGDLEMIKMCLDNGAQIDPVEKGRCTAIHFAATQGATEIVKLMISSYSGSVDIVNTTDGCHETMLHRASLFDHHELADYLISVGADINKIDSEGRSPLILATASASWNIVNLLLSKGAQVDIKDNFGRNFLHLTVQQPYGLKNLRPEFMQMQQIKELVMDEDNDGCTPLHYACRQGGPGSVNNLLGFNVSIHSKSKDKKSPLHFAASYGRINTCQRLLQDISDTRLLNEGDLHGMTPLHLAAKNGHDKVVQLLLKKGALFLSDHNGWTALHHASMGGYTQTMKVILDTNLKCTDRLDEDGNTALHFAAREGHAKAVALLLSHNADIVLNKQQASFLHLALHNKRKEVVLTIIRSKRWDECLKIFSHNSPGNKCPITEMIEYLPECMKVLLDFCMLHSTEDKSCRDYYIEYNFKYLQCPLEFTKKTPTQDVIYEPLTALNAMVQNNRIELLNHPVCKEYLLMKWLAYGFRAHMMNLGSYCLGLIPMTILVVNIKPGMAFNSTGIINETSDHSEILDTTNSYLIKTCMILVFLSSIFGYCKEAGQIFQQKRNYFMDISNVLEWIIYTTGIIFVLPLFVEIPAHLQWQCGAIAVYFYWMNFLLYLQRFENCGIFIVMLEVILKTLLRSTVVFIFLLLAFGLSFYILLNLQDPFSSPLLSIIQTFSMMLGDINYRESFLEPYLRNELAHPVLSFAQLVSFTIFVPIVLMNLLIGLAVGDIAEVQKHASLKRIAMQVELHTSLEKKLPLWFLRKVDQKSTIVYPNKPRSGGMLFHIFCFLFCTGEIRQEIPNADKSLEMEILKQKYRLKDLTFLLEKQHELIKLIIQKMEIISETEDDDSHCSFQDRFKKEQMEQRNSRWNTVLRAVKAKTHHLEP
measuredMetric: activation at 100 µM (%)
The response must be a number in % with no trailing unit.

The molecule listed as CCCCCCCCCCC(=O)O has a reported activation at 100 µM of -14.6

The molecule listed as CCC=C(C)C(=O)O has a reported activation at 100 µM of -1.27

The molecule listed as CC/C=C\CC1=C(C)CCC1=O has a reported activation at 100 µM of 46.5

The molecule listed as CC(=O)C(C)O (stereo not drawn) has a reported activation at 100 µM of 0.29

The molecule listed as Cc1nccnc1C has a reported activation at 100 µM of -1.77

The molecule listed as CC(C)=CC=O has a reported activation at 100 µM of 34.4

The molecule listed as CC(=O)OCC(COC(C)=O)OC(C)=O has a reported activation at 100 µM of -17.1

The molecule listed as COc1cc(C)cc(OC)c1O has a reported activation at 100 µM of 45.9

The molecule listed as CCCCCCCC=O has a reported activation at 100 µM of -11

The molecule listed as CC(C)C(=O)OCCOc1ccccc1 [Phenoxyethyl Isobutyrate] has a reported activation at 100 µM of -7.84

The molecule listed as CCCCCCC(C)O (stereo not drawn) has a reported activation at 100 µM of -14.1

The molecule listed as C=CCOC(=O)c1ccccc1N [Allyl anthranilate] has a reported activation at 100 µM of 0.29
